Documented relative viability across a set of compounds
# System: LK-2
# test.details: relative viability (nuclei count vs DMSO), 5 days (fraction); higher = more cells survive
# condition.context: first compound 0.1265 µM
Returns: the value as a bare number; no unit string appended.

Sample answers from the record:
>  <compound>
O=C(O)c1ccc(-c2c[nH]c3ncc(-c4ccccc4)cc23)cc1C1CCCC1 + Cc1cc(Nc2cc(N3CCN(C)CC3)nc(Sc3ccc(NC(=O)C4CC4)cc3)n2)n[nH]1 [Tozasertib] (partner 0.1 µM)

>  <relative viability>
0.161

$$$$
>  <compound>
O=C(O)c1ccc(-c2c[nH]c3ncc(-c4ccccc4)cc23)cc1C1CCCC1 + COc1cc2c(Oc3ccc(NC(=O)C4(C(=O)Nc5ccc(F)cc5)CC4)cc3F)ccnc2cc1OCCCN1CCOCC1 [Foretinib] (partner 0.25 µM)

>  <relative viability>
1.14

$$$$
>  <compound>
O=C(O)c1ccc(-c2c[nH]c3ncc(-c4ccccc4)cc23)cc1C1CCCC1 + C[C@@H](Oc1cc(-c2cnn(C3CCNCC3)c2)cnc1N)c1c(Cl)ccc(F)c1Cl [Crizotinib] (partner 1 µM)

>  <relative viability>
0.202

$$$$
>  <compound>
O=C(O)c1ccc(-c2c[nH]c3ncc(-c4ccccc4)cc23)cc1C1CCCC1 + CC1(C)CCC(c2ccc(Cl)cc2)=C(CN2CCN(c3ccc(C(=O)NS(=O)(=O)c4ccc(N[C@H](CCN5CCOCC5)CSc5ccccc5)c(S(=O)(=O)C(F)(F)F)c4)cc3)CC2)C1 [Navitoclax] (partner 0.5 µM)

>  <relative viability>
0.876

$$$$

Exercise: Would you mind telling me what relative viability value was observed for O=C(O)c1ccc(-c2c[nH]c3ncc(-c4ccccc4)cc23)cc1C1CCCC1 + CCNC(=O)c1noc(-c2cc(C(C)C)c(O)cc2O)c1-c1ccc(CN2CCOCC2)cc1 [Luminespib] (partner 0.01 µM) ?
Key: 0.187

Just for reference, the supplement of paper PMC10307832 is where these values come from.
